- Test system: Zika virus NS2B-NS3 protease (unlinked complex)
- TEST PROTOCOL: Primary screen GU Rhodamine qHTS for Zika virus inhibitors: Unlinked NS2B-NS3 protease assay (AID 1347159); further: nearly all actives have a fitted effect of over 60% in size
- CONDITION PARAMETERS: Recombinant ZIKV NS2B-NS3 protease, Rhodamine110 substrate fluorescence; series mostly up to 107 µM
Results filed as inconclusive are left out. Activity calls are given as the source filed them. The call rests on the fitted dose curve; in most records, active means well fitted inhibition curve with a large enough effect; inconclusive means small, poorly fitted or top-dose-only effect; inactive means no such curve, though single readings can be large or run the other way.
Tick one outcome: True (active), False (inactive)

Here are 3 compounds together with their reported answers.
[
  {
    "COMPOUND": "Cc1cc(Nc2nc(NC(C)c3ncc(F)cn3)ncc2Cl)n[nH]1 (configuration not stated)",
    "LABEL CLASS": "False"
  },
  {
    "COMPOUND": "C=CC1C(OC2OC(CO)C(O)C(O)C2O)OC=C(C(=O)OC)C1CC1CC(=O)CC(CCc2ccc(O)cc2)O1 (configuration not stated)",
    "LABEL CLASS": "False"
  },
  {
    "COMPOUND": "c1ccc(N2CCN(CCc3nn[nH]n3)CC2)cc1",
    "LABEL CLASS": "False"
  }
]

## Input Just curious, what result did O=C(Nc1ccccc1-c1cn2c(CN3CCNCC3)csc2n1)c1ccc2ccccc2n1 get here?
## Output False

## Input What would you report for Cc1c(NC(=O)c2cc(C(N)=O)nc3cc(F)ccc23)c(C(F)(F)F)nn1Cc1ccc(C#N)cc1 ?
## Output False

## Input What would you report for CS(=O)(=O)N1CCC(NC(=O)c2[nH]ncc2NC(=O)c2c(Cl)cccc2Cl)CC1 ?
## Output False

## Input What would you report for C/C(=C\CCC(C)CCO)C(=O)O[C@@H]1[C@@H](O)[C@H](OC2OC=C(C(=O)O)C3CCC(C)(O)C23)O[C@H](CO)[C@H]1O (some centres not stated) ?
## Output True

## Input What would you report for CCOC(=O)c1sc(NC(=O)[C@H](C(C)C)n2c(=O)[nH]c3ccccc3c2=O)nc1C ?
## Output False

## Input What would you report for Nc1ncnc2c1ncn2CCNCCCCCO ?
## Output False

## Input What would you report for CCOc1cc2ncc(C#N)c(Nc3ccc(F)c(Cl)c3)c2cc1NC(=O)/C=C/CN(C)C ?
## Output False

* * *

- TEST PROTOCOL: qHTS drug screen for cell cycle checkpoint inhibitors in PARPi-resistant BRCA-mutant ovarian cancer cell lines. (AID 1963452)
- CONDITION PARAMETERS: PEO1/OlaR viability, CellTiter-Glo luminescence, 96 h; measured here: PEO1 parental Z-AUC; stronger effect = lower value
I'd appreciate it if you could label each record using Z-AUC and these ranges: low = under -0.6, intermediate = from -0.6 up to 0.3, high = 0.3 and over

[
  {
    "COMPOUND": "COC(=O)N(C)c1c(N)nc(-c2nn(Cc3ccccc3F)c3ncccc23)nc1N",
    "LABEL CLASS": "high"
  },
  {
    "COMPOUND": "CS(=O)(=O)c1ccc(-c2nnc(/C=C/c3nnc(-c4ccc(C#N)cc4)o3)n2-c2ccccc2Cl)nc1",
    "LABEL CLASS": "intermediate"
  },
  {
    "COMPOUND": "CCOc1cc2ncc(C#N)c(Nc3ccc(F)c(Cl)c3)c2cc1NC(=O)/C=C/CN(C)C",
    "LABEL CLASS": "intermediate"
  },
  {
    "COMPOUND": "Cc1ccc(-c2ccc3ncc4c(c3n2)n(C2CCN(C(=O)[C@H](C)O)CC2)c(=O)n4C)cn1",
    "LABEL CLASS": "low"
  }
]

## Input Could you place CCN1CCN(Cc2ccc(NC(=O)c3ccc(C)c(/C=C/c4cnc5[nH]ccc5c4OC)c3)cc2C(F)(F)F)CC1 in its proper category? Many thanks.
## Output low

## Input What would you report for CN1CCN(C2CCC(n3cc(-c4ccc(Oc5ccccc5)cc4)c4c(N)ncnc43)CC2)CC1 (stereo not drawn) ?
## Output low

## Input What would you report for COCCOc1ccc(N2CCN(CCn3ncc4c3nc(N)n3nc(-c5ccco5)nc43)CC2)cc1 ?
## Output intermediate

## Input What would you report for CC(C)(C)C(=O)CN1C(=O)[C@H](NC(=O)Nc2cccc(C(=O)O)c2)CN(C2CCCCC2)c2ccccc21 ?
## Output high

* * *

- TEST PROTOCOL: Primary qHTS for inhibitors of nuclear receptor binding SET domain protein 2 (NSD2) in an RCH-ACV wild type WT cells (2C) (AID 1645877); further: nearly all actives have a fitted effect of over 70% in size
- CONDITION PARAMETERS: RCH-ACV (leukaemia line) NSD2 WT (2C) viability, CellTiter-Glo, 72 h; series mostly up to 44.9 µM
Inconclusive results are not listed. Calls of active or inactive are those of the source. The call rests on the fitted dose curve; in most records, active means well fitted inhibition curve with a large enough effect; inconclusive means small, poorly fitted or top-dose-only effect; inactive means no such curve, though single readings can be large or run the other way.
Tick one outcome: active, inactive

Here are 6 compounds together with their reported answers.
[
  {
    "COMPOUND": "CC1=C(C(=O)O)/C(=C/CO[C@@H]2O[C@H](COC(=O)/C=C/c3ccc(O)cc3)[C@@H](O)[C@H](O)[C@H]2O)C(O)C1 (stereo partly specified)",
    "LABEL CLASS": "inactive"
  },
  {
    "COMPOUND": "COc1ccc(CC2C(=O)NC(C)C(=O)N(C)C3Cc4ccc(cc4)Oc4cc(ccc4OC4OC(CO)C(O)C(O)C4O)CC(C(=O)NC(C)C(=O)NC(C)C(=O)N2C)N(C)C3=O)cc1 (stereo unspecified)",
    "LABEL CLASS": "active"
  },
  {
    "COMPOUND": "CC1(C)CC[C@]2(C(=O)O[C@@H]3O[C@H](CO)[C@@H](O)[C@H](O)[C@H]3O)CC[C@]3(C)C(=CCC4[C@@]5(C)C[C@@H](O)[C@H](O)C(C)(C)C5CC[C@]43C)C2[C@@H]1O (stereo partly specified)",
    "LABEL CLASS": "inactive"
  },
  {
    "COMPOUND": "Cc1nc(NC(=O)N2CCCC2C(N)=O)sc1-c1csc(C(C)(C)C)n1 (stereo unspecified)",
    "LABEL CLASS": "active"
  },
  {
    "COMPOUND": "COc1cc(NC(=O)Nc2cccc(CNC(=O)O[C@H]3CCOC3)c2)ccc1-c1cnco1",
    "LABEL CLASS": "active"
  },
  {
    "COMPOUND": "C[C@H](C/C=C/C(C)(C)O)[C@H]1CC[C@@]2(C)[C@@H]3[C@@H](O[C@@H]4O[C@H](CO)[C@@H](O)[C@H](O)[C@H]4O)C=C4C(CC[C@H](O)C4(C)C)[C@]3(C=O)CC[C@]12C (stereo partly specified)",
    "LABEL CLASS": "inactive"
  }
]

## Input Just curious, what result did COc1cc(Br)c(Nc2nc(-c3c(C)nc4ncccn34)cs2)c(Br)c1 get here?
## Output active

## Input What would you report for CS(=O)(=O)N1CCC(NC(=O)c2[nH]ncc2NC(=O)c2c(Cl)cccc2Cl)CC1 ?
## Output active

* * *

- System: CRL-7250
- TEST PROTOCOL: Cytotoxic Profiling of Annotated Libraries Using Quantitative High-Throughput Screening (AID 1296008); further: nearly all actives have a fitted effect of over 60% in size
- CONDITION PARAMETERS: Five cell lines viability, CellTiter-Glo ATP luminescence, 48-72 h
Results filed as inconclusive are left out. Active and inactive are the calls of the source. Calls come from the whole dose curve; as a rule, active = well fitted inhibition curve with a large enough effect; inconclusive = small, poorly fitted or top-dose-only effect; inactive = flat fitted curve, though single readings scatter.
Tick one outcome: 1.0 for active, 0.0 for inactive

Here are 5 molecules together with their reported answers.
[
  {
    "MOLECULE": "Cn1cncc1C(N)(c1ccc(Cl)cc1)c1ccc2c(c1)c(-c1cccc(Cl)c1)cc(=O)n2C (stereo unspecified)",
    "LABEL CLASS": 1.0
  },
  {
    "MOLECULE": "C[C@@H]1O[C@@H](O[C@H]2[C@H](O)[C@@H](O)[C@H](OC[C@H]3O[C@@H](OC(=O)[C@]45CCC(C)(C)C[C@H]4C4=CCC6[C@@]7(C)CC[C@H](O[C@@H]8OC[C@H](O)[C@H](O[C@@H]9O[C@H](CO)[C@@H](O)[C@H](O)[C@H]9O)[C@H]8O)[C@@](C)(CO)C7CC[C@@]6(C)[C@]4(C)CC5)[C@H](O)[C@@H](O)[C@@H]3O)O[C@@H]2CO)[C@H](O)[C@H](O)[C@H]1O (stereo partly specified)",
    "LABEL CLASS": 0.0
  },
  {
    "MOLECULE": "C[C@H](NC(c1cccc(C[P+](=O)O)c1)[C@H](C)O)c1ccc(Cl)c(Cl)c1 (stereo partly specified)",
    "LABEL CLASS": 0.0
  },
  {
    "MOLECULE": "CC(=O)N[C@@H](CCCCN)C(=O)N(C)[C@@H](CC(C)C)C(=O)N[C@H](C(=O)N(C)[C@@H](Cc1ccccc1)C(=O)N[C@H](Cc1ccccc1)C(N)=O)C(C)C",
    "LABEL CLASS": 0.0
  },
  {
    "MOLECULE": "CNC(=O)c1ccccc1Nc1nc(Nc2ccc(N3CCNCC3)cc2)ncc1Cl",
    "LABEL CLASS": 1.0
  }
]

Next up:
## Input Just curious, what result did COC(=O)C1=C2Nc3ccccc3C23CCN2CCCC(C(C)O)(C1)C23 (stereo unspecified) get here?
## Output 0.0
